Assayed System: catalytic domain of human Bub1 (amino acids 704-1085) (Homo sapiens)
Construct: catalytic domain of human Bub1 (amino acids 704-1085); His6 (N); made in house; host or cells: Hi5 insect cells
Sequence (O43683 704-1085): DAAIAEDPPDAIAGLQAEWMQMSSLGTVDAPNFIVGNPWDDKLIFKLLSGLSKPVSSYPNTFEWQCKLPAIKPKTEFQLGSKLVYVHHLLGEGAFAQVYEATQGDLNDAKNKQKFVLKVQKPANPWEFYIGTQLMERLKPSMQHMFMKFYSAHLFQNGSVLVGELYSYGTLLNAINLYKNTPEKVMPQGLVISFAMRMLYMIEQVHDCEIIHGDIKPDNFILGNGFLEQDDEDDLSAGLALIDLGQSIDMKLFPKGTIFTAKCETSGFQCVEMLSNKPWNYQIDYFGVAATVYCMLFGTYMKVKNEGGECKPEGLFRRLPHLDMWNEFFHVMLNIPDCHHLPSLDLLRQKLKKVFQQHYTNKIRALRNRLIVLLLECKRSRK
Procedure Summary: Bub1 kinase assay (TR-FRET)
Type: biochemical
Test Settings: TR-FRET; ATP 10 μM, peptide substrate 1 μM; 60 min at 22° C.; average or median if tested more than once; read-out: Inhibition of Bub1 kinase IC50
Experimental: […] In a typical assay 11 different concentrations of each compound (0.1 nM, 0.33 nM, 1.1 nM, 3.8 nM, 13 nM, 44 nM, 0.15 μM, 0.51 μM, 1.7 μM, 5.9 μM and 20 μM) were tested in duplicate within the same microtiter plate. […] Subsequently, the amount of product was evaluated by measurement of the resonance energy transfer from the Eu-chelate-antibody complex recognizing the Phosphoserine residue to the streptavidin-XL665 bound to the biotin moiety of the peptide. […]
pIC50: −log10 of the molar value.
Result Type: pIC50

> print(dat)
                                   compound  result.type  readout.value
1  O=C1CN(C(=O)c2ccccn2)Cc2[nH]c(-c3ccncc3)c(Nc3ccccc3)c21        pIC50           7.40

[a] CC(=O)N1CC(=O)c2c([nH]c(-c3ccnc(C)n3)c2Nc2ccccc2)C1
[b] O=C(Nc1cc(-c2[nH]c3c(c2Nc2ccccc2)C(=O)CNC3)ccn1)c1cncs1
[c] COc1ccc(C(=O)Nc2cc(-c3c(Nc4ccccc4)c4c(n3C)CNCC4=O)ccn2)cc1F
Query string: # rank by pIC50, ascending (min first) # answer = labels listed in requested order
Result string: c, a, b
(c: 5.69, a: 7.01, b: 7.29)

[a] CC(C)S(=O)(=O)N1CC(=O)c2c([nH]c(-c3ccnc(NC(=O)[C@@H]4C[C@@H]4F)c3)c2Nc2ccccc2)C1
[b] COc1ccc(C(=O)Nc2cc(-c3c(Nc4ccccc4)c4c(n3C)CN(C(C)=O)CC4=O)ccn2)cc1F
[c] O=C(Nc1cc(-c2[nH]c3c(c2Nc2ccccc2)C(=O)COC3)ccn1)c1cnco1
Query string: Put the entries in order of pIC50, starting with the largest number. # answer = labels listed in requested order
Result string: a, c, b

[P] CCn1c2c(c(Nc3ccccc3)c1-c1ccncc1)C(=O)CN(S(C)(=O)=O)C2
[Q] COC(=O)N1CC(=O)c2c([nH]c(-c3ccnc(NC(=O)[C@@H]4C[C@@H]4F)c3)c2Nc2ccccc2)C1 (relative stereo) [Example 139]
Query string: Rank P against Q by their pIC50 values and give the higher one. Output the label that corresponds to your choice.
Result string: Q
(Q: 8.15, P: 5.77)

---

Assayed System: catalytic domain of human Bub1 (amino acids 704-1085) (Homo sapiens)
Construct: catalytic domain of human Bub1 (amino acids 704-1085); His6 (N); made in house; host or cells: Hi5 insect cells
Procedure Summary: Bub1 kinase assay (TR-FRET)
Format: biochemical
Test Settings: TR-FRET; ATP 10 μM, peptide substrate 1 μM; 60 min at 22° C.; average or median if tested more than once; read-out: Inhibition of Bub1 kinase IC50
Procedure: […] In a typical assay 11 different concentrations of each compound (0.1 nM, 0.33 nM, 1.1 nM, 3.8 nM, 13 nM, 44 nM, 0.15 μM, 0.51 μM, 1.7 μM, 5.9 μM and 20 μM) were tested in duplicate within the same microtiter plate. […] Subsequently, the amount of product was evaluated by measurement of the resonance energy transfer from the Eu-chelate-antibody complex recognizing the Phosphoserine residue to the streptavidin-XL665 bound to the biotin moiety of the peptide. […]
Result Type: IC50 (nM)

> print(dat)
                                   compound  reading.unit  readout.value
1  CC(C)(C)OC(=O)N1CC(=O)c2c([nH]c(-c3ccnc(NC(=O)C4CC4(F)F)c3)c2Nc2ccccc2)C1 (racemic)            nM             10

[P] CN1CCN(C(=O)N2CC(=O)c3c([nH]c(-c4ccncc4)c3Nc3ccccc3)C2)CC1
[Q] CS(=O)(=O)N1CC(=O)c2c([nH]c(-c3ccncc3OCC3CC3)c2Nc2ccccc2)C1
Query string: # compare IC50 for P vs Q ; return the one with the smaller value Output the label that corresponds to your choice.
Result string: Q
(Q: 6 nM, P: 9 nM)
